The reported numbers originate from patent US8957093B2.

Please go through the items and note down their activation at 10 µM.
- target.desc: Gal-4-PPAR (human PPAR LBD fused to GAL4 DNA-binding domain) (Homo sapiens (Human))
- Sequence (P37231 238-503): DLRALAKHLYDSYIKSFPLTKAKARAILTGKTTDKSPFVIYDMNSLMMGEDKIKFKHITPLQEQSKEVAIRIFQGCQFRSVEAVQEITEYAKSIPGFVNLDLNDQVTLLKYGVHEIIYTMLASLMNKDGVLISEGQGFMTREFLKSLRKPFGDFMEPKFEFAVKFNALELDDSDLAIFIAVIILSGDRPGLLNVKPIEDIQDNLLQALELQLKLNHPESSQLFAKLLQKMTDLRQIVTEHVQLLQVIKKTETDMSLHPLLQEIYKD
- measurement.description: GAL4-PPARG LBD / UAS-luciferase transactivation assay in HEK 293T cells
- Type: cell-based
- details: HEK-293T, 18 h; read-out: % transactivation at 10 μM (GAL4)
One number for each entry, in %.

Batch of 7 compounds: report activation at 10 µM for each.
1. CCCc1ccc([C@H](C)NC(=O)c2ccc3c(c2)c(C)c(C)n3Cc2ccc(-c3ccccc3C(=O)O)cc2)cc1
2. Cc1c(C)n(Cc2ccc(-c3ccccc3C(=O)NS(C)(=O)=O)cc2)c2ccc(C(=O)N[C@@H](C)c3cccc(C(C)C)c3)cc12
3. Cc1c(C)n(Cc2ccc(-c3ccccc3C(=O)O)cc2)c2ccc(C(=O)N[C@H](C)C3COc4ccccc4O3)cc12 (stereo partly shown)
4. Cc1c(C)n(Cc2ccc(-c3ccccc3C(=O)O)cc2)c2ccc(C(=O)N[C@@H](C)c3ccnc(Br)c3)cc12
5. Cc1c(C)n(Cc2ccc(-c3ccccc3C(=O)O)cc2)c2ccc(C(=O)N[C@H](C)c3ccnc4ccccc34)cc12
6. Cc1cc(Cl)ccc1[C@H](C)NC(=O)c1ccc2c(c1)c(C)c(C)n2Cc1ccc(-c2ccccc2C(=O)O)cc1
7. Cc1c(C)n(Cc2ccc(-c3ccccc3C(=O)O)cc2)c2ccc(C(=O)N[C@@H](C)c3cc(Cl)cc(Cl)c3)cc12

[30, 5, 40, 40, 40, 20, 30]

Batch of 3 compounds: report activation at 10 µM for each.
1. CC[C@H](NC(=O)c1ccc2c(ccn2Cc2ccccc2-c2cccc(C(=O)O)c2)c1)c1ccccc1
2. COc1cc(C(F)(F)F)ccc1[C@@H](C)NC(=O)c1ccc2c(c1)c(C)c(C)n2Cc1ccc(-c2ccccc2C(=O)O)cc1
3. Cc1c(C)n(Cc2ccc(-c3ccccc3C(=O)O)cc2)c2ccc(C(=O)N[C@@H](C)c3ccc(OC(F)(F)F)cc3)cc12

1: 20; 2: 20; 3: 25

Batch of 3 compounds: report activation at 10 µM for each.
1. Cc1c(C)n(Cc2ccc(-c3ccccc3C(=O)O)cc2)c2ccc(C(=O)N[C@@H](C)c3ccc(C(F)(F)F)cc3C(F)(F)F)cc12
2. Cc1c(C)n(Cc2ccc(-c3ccccc3C(=O)O)cc2)c2ccc(C(=O)N[C@@H](C)c3cccc(C4CC4)n3)cc12
3. Cc1c(C)n(Cc2ccc(-c3ccccc3C(=O)O)cc2)c2ccc(C(=O)NC(C)c3cncc(Br)c3)cc12 (stereo not shown)

20
30
35

----------
- target.desc: GST-PPARG-LBD (Homo sapiens (Human), UniProt P37231)
- measurement.description: Lanthascreen PPARG competitive binding assay (Invitrogen, TR-FRET)
- details: Lanthascreen PPARG competitive binding; inc = incomplete curve; NA = not active; read-out: IC50 (nM) Lantha
Please go through the items and note down their IC50.
One number for each entry, in nM.

# count of solved cases: 2
Cc1c(C)n(Cc2ccc(-c3ccccc3C(=O)O)cc2)c2ccc(C(=O)N[C@@H](C)c3ccc(Cl)cc3Cl)cc12 [Example 303]
4
Cc1c(C)n(Cc2ccc(-c3ccccc3C(=O)O)cc2)c2ccc(C(=O)N[C@@H](C)c3c(F)cccc3C(F)(F)F)cc12 [Example 300]
9

Query compound follows.
Record lookup: for GST-PPARG-LBD (Homo sapiens (Human), UniProt P37231), what IC50 belongs to Cc1c(C)n(Cc2ccc(-c3ccccc3C(=O)O)cc2)c2ccc(C(=O)N[C@@H](C)c3ccc(C(F)(F)F)cc3F)cc12 [Example 298] ?
11

----------
- target.desc: Gal-4-PPAR (human PPAR LBD fused to GAL4 DNA-binding domain) (Homo sapiens (Human))
- measurement.description: GAL4-PPARG LBD / UAS-luciferase transactivation assay in HEK 293T cells
- Format: cell-based
- details: HEK-293T, 18 h; read-out: % transactivation at 10 μM (GAL4)
Please go through the items and note down their activation at 10 µM.
Numbers only, in %.

COc1cc(OC)cc([C@H](C)NC(=O)c2ccc3c(c2)c(C)c(C)n3Cc2ccc(-c3ccccc3C(=O)O)cc2)c1
20
Cc1c(C)n(Cc2ccc(-c3ccccc3C(=O)O)cc2)c2ccc(C(=O)N[C@@H](C)c3cc(C4CC4)ccn3)cc12
25
Cc1c(C)n(Cc2ccc(-c3ccccc3C(=O)O)cc2)c2ccc(C(=O)N[C@@H](C)c3ccc(F)cc3F)cc12
30
Cc1c(C)n(Cc2ccc(-c3ccccc3C(=O)O)cc2)c2ccc(C(=O)N[C@H](C)c3ccc(C4CC4)nc3)cc12
35
Cc1c(C)n(Cc2ccc(-c3ccccc3C(=O)O)cc2)c2ccc(C(=O)N[C@@H](C)c3cc(C(F)(F)F)ccc3F)cc12
20
CNC(=O)c1ccccc1-c1ccc(Cn2c(C)c(C)c3cc(C(=O)N[C@@H](C)c4cccc(C(C)C)c4)ccc32)cc1
10
COc1cc(F)cc([C@H](C)NC(=O)c2ccc3c(c2)c(C)c(C)n3Cc2ccc(-c3ccccc3C(=O)O)cc2)c1
30
Cc1c(C)n(Cc2ccc(-c3ccccc3C(=O)O)cc2)c2ccc(C(=O)N[C@@H](C)c3c(F)cccc3C(F)(F)F)cc12
15
Cc1c(C)n(Cc2ccc(-c3ccccc3C(=O)O)cc2)c2ccc(C(=O)N[C@@H](C)c3cccc4ccccc34)cc12
17
Cc1c(C)n(Cc2ccc(-c3ccccc3-c3nn[nH]n3)cc2)c2ccc(C(=O)N[C@@H](C)c3cccc(C(C)C)c3)cc12
10

Batch of 3 molecules: report activation at 10 µM for each.
1. Cc1c(C)n(Cc2ccc(-c3ccccc3-c3n[nH]c(=O)o3)cc2)c2ccc(C(=O)N[C@@H](C)c3cccc(C(C)C)c3)cc12
2. Cc1c(C)n(Cc2ccc(-c3ccccc3C(=O)O)cc2)c2ccc(C(=O)N[C@@H](C)c3ccc(C(F)(F)F)cc3F)cc12
3. Cc1c(C)n(Cc2ccc(-c3ccccc3C(=O)N(C)C)cc2)c2ccc(C(=O)N[C@@H](C)c3cccc(C(C)C)c3)cc12

1: 10; 2: 10; 3: 10

Batch of 8 molecules: report activation at 10 µM for each.
1. Cc1c(C)n(Cc2ccc(-c3ccccc3C(=O)O)cc2)c2ccc(C(=O)N[C@@H](C)c3ccc(Cl)c(Cl)c3)cc12
2. Cc1ccc(F)c([C@H](C)NC(=O)c2ccc3c(c2)c(C)c(C)n3Cc2ccc(-c3ccccc3C(=O)O)cc2)c1
3. Cc1c(C)n(Cc2ccc(-c3ccccc3C(=O)O)cc2)c2ccc(C(=O)N[C@@H](C)C3COc4ccccc4O3)cc12 (stereo partly drawn)
4. Cc1c(C)n(Cc2ccc(-c3ccccc3C(=O)NO)cc2)c2ccc(C(=O)N[C@@H](C)c3cccc(C(C)C)c3)cc12
5. Cc1c(C)n(Cc2ccc(-c3ccccc3C(=O)O)cc2)c2ccc(C(=O)N[C@@H](C)c3c(Cl)cccc3Cl)cc12
6. Cc1c(C)n(Cc2ccc(-c3ccccc3C(=O)O)cc2)c2ccc(C(=O)NCc3ccc(Cl)cc3Cl)cc12
7. CC[C@@H](NC(=O)c1ccc2c(ccn2Cc2ccccc2-c2cccc(C(=O)O)c2)c1)c1ccccc1
8. COc1ccc([C@H](C)NC(=O)c2ccc3c(c2)c(C)c(C)n3Cc2ccc(-c3ccccc3C(=O)O)cc2)cc1Cl

[30, 20, 20, 4, 15, 18, 40, 20]

Batch of 4 molecules: report activation at 10 µM for each.
1. Cc1c(C)n(Cc2ccc(-c3ccccc3C(=O)O)cc2)c2ccc(C(=O)N[C@H](C)c3ccnc(Br)c3)cc12
2. Cc1c(C)n(Cc2ccc(-c3ccccc3C(=O)O)cc2)c2ccc(C(=O)N[C@H](C)c3c(Cl)cccc3Cl)cc12
3. Cc1c(C)n(Cc2ccc(-c3ccccc3C(=O)O)cc2)c2ccc(C(=O)N[C@@H](C)c3ccc(OC(C)C)cc3)cc12
4. CC[C@@H](NC(=O)c1ccc2c(ccn2Cc2ccccc2-c2ccc(C(=O)O)cc2)c1)c1ccccc1

1: 40; 2: 20; 3: 10; 4: 45

Batch of 2 molecules: report activation at 10 µM for each.
1. CC[C@@H](NC(=O)c1ccc2c(c1)c(C)c(C)n2Cc1ccccc1-c1ccc(C(=O)O)cc1)c1ccccc1
2. Cc1c(C)n(Cc2ccc(-c3ccccc3C(N)=O)cc2)c2ccc(C(=O)N[C@@H](C)c3cccc(C(C)C)c3)cc12

[35, 2]

----------
- target.desc: GST-PPARG-LBD (Homo sapiens (Human), UniProt P37231)
- measurement.description: Lanthascreen PPARG competitive binding assay (Invitrogen, TR-FRET)
- details: Lanthascreen competitive binding; NA = not active; inc = incomplete curve; read-out: IC50 (nM) Lantha
- Description: Lanthascreen PPARG Competitive Binding Assay (Invitrogen) The assay was performed according to manufacturer protocol. […] Experiment was performed in triplicate, and incubated for 2 hours in the dark prior to assay read in Perkin Elmer ViewLux ultra HTS microplate reader. FRET signal was measured by excitation at 340 nm and emission at 520 nm for fluorescein and 490 nm for terbium. Fold change over DMSO was calculated using GraphPad Prism Software (La Jolla, Calif.) by calculating 520 nm/490 nm ratio. […]
measured.attribute: IC50 (nM)
One number for each entry, in nM.

# count of solved cases: 2
Cc1c(C)n(Cc2ccc(-c3ccccc3C(=O)O)cc2)c2ccc(C(=O)N[C@@H](C)c3cccc(F)c3Cl)cc12
4
Cc1c(C)n(Cc2ccc(-c3ccccc3C(=O)O)cc2)c2ccc(C(=O)NCc3ccc(C(F)(F)F)cc3)cc12
208

Query molecule follows.
Sample COc1cc(OC)cc([C@H](C)NC(=O)c2ccc3c(c2)c(C)c(C)n3Cc2ccc(-c3ccccc3C(=O)O)cc2)c1 — what was its IC50?
20
